# SYSTEM TESTED: ERβ LBD (amino acids 257–502) (Homo sapiens, UniProt Q92731)
# Sequence (Q92731 257-502): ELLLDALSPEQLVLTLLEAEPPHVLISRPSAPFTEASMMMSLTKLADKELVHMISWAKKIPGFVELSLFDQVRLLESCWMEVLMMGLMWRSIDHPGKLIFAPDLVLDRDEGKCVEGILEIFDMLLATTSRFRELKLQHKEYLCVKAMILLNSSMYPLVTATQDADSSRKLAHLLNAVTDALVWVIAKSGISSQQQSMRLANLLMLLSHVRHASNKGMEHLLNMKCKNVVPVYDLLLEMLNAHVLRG
# EXPERIMENT NOTES: Differential HDX mass spectrometry of ERβLBD with and without ligand
# Type: binding
# COND: ERβLBD:ligand 1:10; average of 1, 30, 60, 900, 4200 sec; negative = protection
Overview of reported Average difference in deuterium levels, LOOP 274-295 across a group of molecules:
EXPERIMENTAL READOUT: Average difference in deuterium levels, LOOP 274-295 (%)

| MOLECULE | UNIT TAG | OBSERVED VALUE |
| --- | --- | --- |
| O=C(c1ccc(O)cc1)c1c(-c2ccc(O)cc2)sc2cc(O)ccc12 [compound 88074] | % | −8 |
| Oc1ccc2c(c1)CC[C@H](c1ccccc1)[C@@H]2c1ccc(OCCN2CCCC2)cc1 [Lasodoxifene, lasofoxifene] | % | −12 |
| O=C(c1ccc(OCCN2CCCC2)cc1)c1c(-c2ccc(O)cc2)sc2cc(O)ccc12 [compound 117018] | % | −8 |
| CC/C(=C(\c1ccc(O)cc1)c1ccc(OCCN(C)C)cc1)c1ccccc1 [4-hydroxy tamoxifen, 4-hydroxytamoxifen] | % | −12 |
| C[C@]12CC[C@@H]3c4ccc(O)cc4C[C@@H](CCCCCCCCC[S+]([O-])CCCC(F)(F)C(F)(F)F)[C@H]3[C@@H]1CC[C@@H]2O (stereo partly shown) [ICI, ICI 182780] | % | −11 |
| CC/C(=C(/CC)c1ccc(O)cc1)c1ccc(O)cc1 [DES, Diethylstilbestrol] | % | −10 |
| C[C@]12CC[C@@H]3c4ccc(O)cc4CC[C@H]3[C@@H]1CC[C@@H]2O [Estradiol, 17β-estradiol] | % | −8 |
